Kindly supply the reported TGI values for the records listed here.
# Test system: UO-31 renal
# testDescription: NCI tumour cell line growth inhibition, 48 h

// worked examples, TGI included
- molecule: "O=C1/C(=c2\\c3ccccc3n3c(=O)c4ccccc4nc23)Nc2ccccc21"
  testSystem: "UO-31 renal"
  TGI: "> 100 µM"
- molecule: "C#Cc1ccc(-n2c(/C=C/c3ccc4ccccc4n3)nc3ncccc3c2=O)cc1"
  testSystem: "UO-31 renal"
  TGI: "1.8 µM"
- molecule: "CN(C)CC1CN(C(=O)Nc2ccccc2)C(=N)O1 (stereo unspecified)"
  testSystem: "UO-31 renal"
  TGI: "> 100 µM"
- molecule: "COc1cc2c(cc1C)NC(=O)/C2=C/c1c(C)nc2sc(C)cn12"
  testSystem: "UO-31 renal"
  TGI: "> 100 µM"
- molecule: "COC(=O)c1c/c(=N\\NC(=O)CC(=O)Nc2ccc(C)cc2)c2ccccc2o1"
  testSystem: "UO-31 renal"
  TGI: "> 100 µM"

Param readout= TGI; system= UO-31 renal; entry= O=C1NCN(c2ccccc2)C12CCN(CCCSc1ccc(F)cc1)CC2 ; returns value. > 100 µM

----------
# Test system: A549 NSCLC
# testDescription: NCI tumour cell line growth inhibition, 48 h
Where a SMILES comes first, the peptide text is derived from it. Bridges are numbered along the chain shown (N, C = ends). Roman numbers before positions name the chains, in order. [ ]: non-standard residue; d: D form. The star is where a group is joined. Heptadecanoyl = CCCCCCCCCCCCCCCCC(=O)*; Phg = N[CH](C(=O)O)c1ccccc1
I'd be grateful if you could share measured TGI for these entries.

Example entries begin here.
- molecule: "O=C(Nc1ccc(Cl)cc1Cl)/C(Cl)=C1/Sc2ccccc2NC1=O"
  measuredResult: "> 100 µM"
- molecule: "C=C1CCC2C(C)(CO)C(O)CCC2(C)C1CC(O)C1=CCOC1=O (configuration not stated)"
  measuredResult: "> 100 µM"
- molecule: "Cc1cc(Cl)ccc1Nc1nc(C(F)(F)F)ccc1C(=O)N/N=C/c1c(Cl)cccc1Cl"
  measuredResult: "> 100 µM"
- molecule: "Clc1ccc(CCn2cncn2)c(Cl)c1"
  measuredResult: "> 100 µM"
- molecule: "CC1(CC(=O)OC(C#C[Si](C)(C)C)Cc2ccccc2)OCCO1 (configuration not stated)"
  measuredResult: "> 100 µM"
- molecule: "CCCCCCCCCCCCCCCCC(=O)N1CCCC1C(=O)NCC(=O)NC(C(=O)N1CCCC1C(=O)NC(CO)C(=O)NC(Cc1ccc(O)cc1)C(=O)NC(CCCCNC(=O)C1CCCN1C(=O)C(CCCCN)NC(=O)C(CCCCN)NC(=O)C(CCCCN)NC(=O)C(CCCNC(=N)N)NC(=O)C(CCCCN)NC(=O)C(N)C(C)C)C(=O)NC(CC(C)C)C(=O)NC(CCCNC(=N)N)C(=O)N1CCCC1C(=O)NCC(N)=O)c1ccccc1 (configuration not stated) (I: Heptadecanoyl-PG[Phg]PSYKLRPG-NH2 / II: H-VKRKKKP; amide I:7-II:C; configuration not given here)"
  measuredResult: "53.3 µM"

Which TGI reading was recorded for the molecule N=C(N)c1ccc(-c2ccc(-c3cc(Cl)cc(Cl)c3)s2)nc1 ? 4.56 µM

----------
# System: SF-539 CNS
# testDescription: NCI tumour cell line growth inhibition, 48 h
outcomeMeasure: TGI (µM)
Give bare numbers, in µM.

Sample answers from the record:
- compound: "COC(=O)/C(Cl)=C1/CC1COCc1ccccc1 (stereo not given)"
  TGI / µM: 49.8
- compound: "C(#Cc1ccccc1C#Cc1ccccn1)c1ccc(OCCCCCCOc2ccc(C#Cc3ccccc3C#Cc3ccccn3)cc2)cc1"
  TGI / µM: 7.63
- compound: "CC1(C)CC[C@]2(C(=O)O)CC[C@]3(C)C(=CC[C@@H]4[C@@]5(C)CC[C@@H]6OC(C)(C)OC[C@@]6(C)[C@@H]5CC[C@]43C)[C@H]2C1"
  TGI / µM: 33.5
- compound: "COc1ccc2c(c1)c(=O)oc1cc(OC/C(=N\\O)c3ccc(F)cc3)ccc12"
  TGI / µM: 40.9
- compound: "[O-][n+]1onc2c1-c1nonc1CC2"
  TGI / µM: 53.4

Now for the compound whose TGI we want.
Provide value of TGI for this record tested with SF-539 CNS: N#CC(C#N)=Cc1ccc(-c2ccc(-c3nc4ccccc4s3)cc2)s1 36.3
